System: CCRF-CEM leukemia
Experiment: NCI tumour cell line growth inhibition, 48 h; in the data active = GI50 below about 0.43 µM; inactive = the rest
Classes used: active, inactive

• Fc1ccc(-c2nn3c(-c4cc(C(F)(F)F)cc(C(F)(F)F)c4)nnc3s2)cc1 = inactive
• CC[C@@H](C(=O)[C@H](C)[C@H](O)[C@@H](C)[C@H]1O[C@H]([C@@H](CC)C(=O)O)CC[C@H]1C)C1O[C@]2(C=C[C@@H](O)[C@]3(CC[C@@](C)([C@H]4CC[C@](O)(CC)[C@H](C)O4)O3)O2)[C@H](C)C[C@@H]1C (some centres undefined) = active
• O=c1c2cccc(F)c2sc2c(N3CCNCC3)nc3ccccc3c12 = inactive
• CCCC[n+]1c(/C=C\c2c(OC)cc(OC)cc2OC)ccc2ccccc21 = inactive
